B1: TPR t1 (parent)
chain: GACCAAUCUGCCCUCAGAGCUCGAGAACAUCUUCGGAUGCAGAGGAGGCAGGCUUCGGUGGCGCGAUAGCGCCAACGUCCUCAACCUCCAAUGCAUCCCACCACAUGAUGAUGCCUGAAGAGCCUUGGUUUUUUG

Variants of: B1
ASSAY DETAILS: polymerase ribozyme fitness, log enrichment relative to wild type (log ratio); higher = more active; in vitro selection for triplet polymerase activity
# reported polymerase ribozyme fitness (log ratio); entries follow
Provide a numeric answer; units are not to be included.

# example entries with known answers
A75G C85U U130C | -0.982
C22G G61A G93A | -3.75
G48A G117C | -3.17
U7A U106A | 0.182
A41U G69U G120C | 0.831

Prompt line: Sample A2C C8A U131A — what was its polymerase ribozyme fitness (log ratio)?
Response line: -1.54

Prompt line: Sample C20U G60A C124U — what was its polymerase ribozyme fitness (log ratio)?
Response line: 0.188

Prompt line: Sample U7C A18C U78C C82U — what was its polymerase ribozyme fitness (log ratio)?
Response line: -1.52

Prompt line: Sample G63U C85A C88U C101G C115A C124A U129C — what was its polymerase ribozyme fitness (log ratio)?
Response line: -2.52

Prompt line: Sample C11U G60U U78C U116C — what was its polymerase ribozyme fitness (log ratio)?
Response line: -2.11

Prompt line: Sample U96C C102U G110A G122U — what was its polymerase ribozyme fitness (log ratio)?
Response line: -6.13

Prompt line: Sample G42C A66G C79U A121C U133G — what was its polymerase ribozyme fitness (log ratio)?
Response line: -1.36

Prompt line: Sample A50G G110U — what was its polymerase ribozyme fitness (log ratio)?
Response line: -0.639

Prompt line: Sample G25U C56U C72G C123G — what was its polymerase ribozyme fitness (log ratio)?
Response line: -6.31

Prompt line: Sample C22G G47C C104A — what was its polymerase ribozyme fitness (log ratio)?
Response line: -4.76

Prompt line: Sample G47U C114G — what was its polymerase ribozyme fitness (log ratio)?
Response line: -4.11

Prompt line: Sample C101G G117A — what was its polymerase ribozyme fitness (log ratio)?
Response line: -3.52

Prompt line: Sample A43U G45A C56U C62U U92A — what was its polymerase ribozyme fitness (log ratio)?
Response line: -4.61

The origin of these recorded values is the RNAGym collection of RNA variant scans (doi:10.1073/pnas.2313332121).
